Molecular target: GABA transporter 2 (Mus musculus)
Sequence (P31651 whole entry): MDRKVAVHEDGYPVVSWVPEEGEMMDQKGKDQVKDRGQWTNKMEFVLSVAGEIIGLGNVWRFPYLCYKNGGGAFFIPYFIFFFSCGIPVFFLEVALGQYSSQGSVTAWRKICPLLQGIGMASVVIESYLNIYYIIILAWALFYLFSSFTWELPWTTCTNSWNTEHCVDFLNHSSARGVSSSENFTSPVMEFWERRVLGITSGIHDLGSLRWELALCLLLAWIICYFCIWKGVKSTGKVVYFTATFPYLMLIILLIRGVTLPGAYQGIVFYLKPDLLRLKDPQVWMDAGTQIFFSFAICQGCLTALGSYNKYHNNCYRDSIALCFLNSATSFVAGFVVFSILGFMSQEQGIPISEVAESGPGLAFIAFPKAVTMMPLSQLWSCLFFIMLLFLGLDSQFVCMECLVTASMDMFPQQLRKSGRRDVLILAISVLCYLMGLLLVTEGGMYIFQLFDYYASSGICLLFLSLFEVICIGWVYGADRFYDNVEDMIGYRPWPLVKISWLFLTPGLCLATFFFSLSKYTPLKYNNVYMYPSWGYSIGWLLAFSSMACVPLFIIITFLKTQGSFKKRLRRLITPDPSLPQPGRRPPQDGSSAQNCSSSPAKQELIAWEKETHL
Assay: Inhibition of mouse mGAT2 expressed in HEK293 cells assessed as inhibition of [3H]GABA uptake after 3 mins incubation by TopCount microplate scintillation counting analysis
Format: cell-based
Settings: read-out: IC50
Known IC50 of a selection of compounds
quantity-measured: IC50

{"compound": "CN(CCC=C1c2ccccc2CCc2ccccc21)C1CCCC=C1C(=O)O (stereo unspecified)", "assayed-system": "GABA transporter 2 (Mus musculus)", "result": "81 µM"}
{"compound": "CN(CCOC(c1ccc(C(F)(F)F)cc1)c1ccc(C(F)(F)F)cc1)C1CCCC=C1C(=O)O (stereo unspecified)", "assayed-system": "GABA transporter 2 (Mus musculus)", "result": "107 µM"}
{"compound": "CN(CCC=C1c2ccccc2CCc2ccccc21)[C@@H]1CCCC[C@H]1C(=O)O (racemic)", "assayed-system": "GABA transporter 2 (Mus musculus)", "result": "125 µM"}
{"compound": "CCCCN1CCN(CCON=C(c2ccccc2)c2ccccc2)CC(C(=O)O)C1 (stereo unspecified)", "assayed-system": "GABA transporter 2 (Mus musculus)", "result": "> 1000 µM"}
{"compound": "CNCCOC(c1ccc(C(F)(F)F)cc1)c1ccc(C(F)(F)F)cc1", "assayed-system": "GABA transporter 2 (Mus musculus)", "result": "190 µM"}
{"compound": "CN(CCC=C1c2ccccc2CCc2ccccc21)CCCP(=O)(O)O", "assayed-system": "GABA transporter 2 (Mus musculus)", "result": "> 1000 µM"}
{"compound": "O=C(O)CCNCCC=C1c2ccccc2CCc2ccccc21", "assayed-system": "GABA transporter 2 (Mus musculus)", "result": "1380 µM"}
{"compound": "O=C(O)C1CN(CCOC(c2ccc(C(F)(F)F)cc2)c2ccc(C(F)(F)F)cc2)CCN1 (racemic)", "assayed-system": "GABA transporter 2 (Mus musculus)", "result": "401 µM"}
{"compound": "CCCCN1CCN(CCC=C(c2sccc2C)c2sccc2C)CC(C(=O)O)C1 (stereo unspecified)", "assayed-system": "GABA transporter 2 (Mus musculus)", "result": "80.6 µM"}
{"compound": "Cc1ccsc1C(=CCCN(C)C1CCCC=C1C(=O)O)c1sccc1C (stereo in doubt; (E2)-6a)", "assayed-system": "GABA transporter 2 (Mus musculus)", "result": "67 µM"}
{"compound": "CCOC(=O)[C@H]1CCCC[C@H]1N(C)CCC=C(c1sccc1C)c1sccc1C", "assayed-system": "GABA transporter 2 (Mus musculus)", "result": "201 µM"}
